target: MMP-2 (Homo sapiens); conditions: read-out: IC50 (μM ± SD), enzymatic inhibition of MMP-2; catalytic domain of MMP-2; ZBG library; value ± SD
Sequence (P08253 110-660): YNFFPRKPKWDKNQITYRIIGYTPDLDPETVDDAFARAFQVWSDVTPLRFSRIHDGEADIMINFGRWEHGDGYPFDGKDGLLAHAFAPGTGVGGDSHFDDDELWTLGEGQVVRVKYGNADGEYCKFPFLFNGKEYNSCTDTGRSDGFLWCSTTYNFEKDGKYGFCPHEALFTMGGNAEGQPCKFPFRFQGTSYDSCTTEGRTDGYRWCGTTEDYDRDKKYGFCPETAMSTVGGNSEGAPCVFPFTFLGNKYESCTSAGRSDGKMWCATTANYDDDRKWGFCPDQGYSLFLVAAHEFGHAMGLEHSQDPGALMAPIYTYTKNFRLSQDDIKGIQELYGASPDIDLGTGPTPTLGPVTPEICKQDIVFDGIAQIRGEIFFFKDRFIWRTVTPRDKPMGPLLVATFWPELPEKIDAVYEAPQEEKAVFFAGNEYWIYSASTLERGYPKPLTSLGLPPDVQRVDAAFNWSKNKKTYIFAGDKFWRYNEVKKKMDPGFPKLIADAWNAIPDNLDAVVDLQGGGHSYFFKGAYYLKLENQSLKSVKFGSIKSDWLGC
measured.attribute: IC50 (µM)
One number for each entry, in µM.

Report IC50, nothing else, for this compound: CC(=O)NO [AHA, acetohydroxamic acid, reference compound]
10000

---

biological target: MMP-8 (Homo sapiens); assay: MMP inhibition fluorometric assay, MMP-8; details: experimental binding energy from activity data; racemic mixture tested
Sequence (P22894 101-467): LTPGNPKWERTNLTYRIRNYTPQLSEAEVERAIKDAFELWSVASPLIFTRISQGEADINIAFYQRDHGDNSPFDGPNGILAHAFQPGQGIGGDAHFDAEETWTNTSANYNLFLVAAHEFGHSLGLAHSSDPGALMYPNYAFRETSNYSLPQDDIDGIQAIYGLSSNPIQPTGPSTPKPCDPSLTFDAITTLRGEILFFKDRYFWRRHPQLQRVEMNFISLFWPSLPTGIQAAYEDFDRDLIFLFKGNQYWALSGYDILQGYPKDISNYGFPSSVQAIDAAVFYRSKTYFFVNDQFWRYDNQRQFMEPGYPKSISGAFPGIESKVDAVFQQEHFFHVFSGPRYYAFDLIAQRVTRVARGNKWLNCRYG
measured.attribute: ΔG exp MMP-8 (kcal)
Numbers only, in kcal.

Recorded results for 2 compounds are shown here.
compound: O=S(=O)(N[C@H](CO)CS)c1ccc(Oc2ccccc2)cc1 (racemic) [25d R]
observed.measurement: -6.870
//
compound: O=S(=O)(NC(CO)CO)c1ccc(Oc2ccccc2)cc1 [Compound 25a]
observed.measurement: -5.460

Each compound below has a reported value. Please supply its ΔG exp MMP-8.
1. O=S(=O)(N[C@@H](CO)CS)c1ccc(Oc2ccccc2)cc1 [25d S]
2. Cl.O=S(=O)(N[C@H](CO)Cc1c[nH]cn1)c1ccc(Oc2ccccc2)cc1 [25e S]
3. Cl.O=S(=O)(N[C@@H](CO)Cc1c[nH]cn1)c1ccc(Oc2ccccc2)cc1 (racemic) [25e R]

[-6.870, -4.740, -4.740]
